Numbers sourced from patent US20220177594A1.

- STUDY_TARGET: T1, ANTIBODY EXPRESSION CONTROL
- T1 construct: also called mouse anti-canine antibody (capture reagent of the expression control ELISA)
- ASSAY_REMARKS: SPR Biacore, expression control
- Method: The affinity with which candidate mAbs bind canine, feline, and human (SEQ ID NO: 122; Human_OSMR) (R&D Systems, Minneapolis, Minn.) OSMR was determined using surface plasmon resonance (SPR) on a Biacore system (Biacore Life Sciences (GE Healthcare), Uppsala, Sweden). […] Chips were quenched with ethanolamine and the affinity with which all candidate mAbs bound to the immobilized OSMR was evaluated. […]
Answer each item with its documented kon.
Give bare numbers, in M⁻¹ s⁻¹.

BINDER: Mu_02D09_VH (SEQ ID NO: 31)_G33A (antibody, V domains shown) VH: EVQLVESGGGLVKPGGSLTLSCAASGFTFSDYAMHWLRQAPEKGLEWVAYISSGSRAVFFADTVKGRFTISRDNAKNTLFLQMTSLRSDDTAMYYCARDRYDGRGFAYWGQGTLVTVSA VL: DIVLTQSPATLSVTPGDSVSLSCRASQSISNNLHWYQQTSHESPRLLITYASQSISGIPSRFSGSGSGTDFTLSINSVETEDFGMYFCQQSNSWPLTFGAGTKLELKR
kon (M⁻¹ s⁻¹): 327000

Output measured kon for this item: Mu_19F07_VL (SEQ ID NO: 49)_Q89A (antibody, V domains shown) VH: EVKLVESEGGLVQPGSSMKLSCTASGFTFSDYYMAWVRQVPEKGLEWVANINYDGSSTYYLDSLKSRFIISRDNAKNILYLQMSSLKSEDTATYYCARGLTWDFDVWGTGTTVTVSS VL: DIVMTQSHKFMSPSVGDRVSITCKASQDVDTAVAWYQQKPGQSPKLLIYLASTRHTGVPDRFTGSGSGTDFTLTISNVQSEDLADYFCAQYSRFPLTFGAGTKLELKR
319000
